Assay: Drug concentration in ipsilateral striatum of malonate induced huntington disease rat measured after 24 hrs by LC/MS-MS analysis
Format: ADME, tissue-based
Conditions: read-out: Ct
METRIC NAME: concentration at 24 h (nM)
Numeric answer only, unit nM assumed.

Query: Name the reported concentration at 24 h value associated with the molecule CCCCCCN(C)CC(=O)C(CC(=O)O)NC(=O)[C@H](CC)n1cc(C(C)(C)C)nc(NCc2nonc2C)c1=O (stereo partly specified)
Result: 100

====

Test system: HCT-116
Test: Antiproliferative activity against human HCT-116 cells assessed as inhibition of cell proliferation incubated for 24 hrs by MTT assay
Assay type: functional, cell-based
Details: HCT-116, 24 h
METRIC NAME: pEC50
# pEC50 = -log10(concentration in molar units)

Query: Look up pEC50: `c1ccc2c(c1)c1nc3nonc3nc1n2CCc1nn[nH]n1`
Result: 4.51

Query: Try this compound next: `Nc1nonc1C(=O)N/N=C1\c2ccccc2-c2nc3nonc3nc21`
Result: 5.80
